Test: self-splicing fitness, log relative to wild type (ln ratio); higher = more splicing; Tetrahymena group I intron in knt gene, E. coli kanamycin selection, DiMSum; sequences stand for … in CUCUCU…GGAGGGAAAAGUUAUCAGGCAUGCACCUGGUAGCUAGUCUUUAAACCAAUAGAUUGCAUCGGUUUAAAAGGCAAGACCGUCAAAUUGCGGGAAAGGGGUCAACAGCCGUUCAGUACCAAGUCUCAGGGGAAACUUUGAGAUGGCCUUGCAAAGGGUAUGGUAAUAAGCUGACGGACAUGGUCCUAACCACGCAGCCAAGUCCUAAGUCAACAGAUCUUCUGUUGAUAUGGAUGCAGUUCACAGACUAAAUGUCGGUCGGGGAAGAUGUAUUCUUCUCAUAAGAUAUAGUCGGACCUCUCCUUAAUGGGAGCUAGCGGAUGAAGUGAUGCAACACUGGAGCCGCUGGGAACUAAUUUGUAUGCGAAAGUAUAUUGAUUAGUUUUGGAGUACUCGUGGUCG;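 note: selection with 25 µg/mL kanamycin versus none on LB agar overnight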
Conditions: 30 °C
assay metric: self-splicing fitness (ln)

See these solved cases before continuing.
• UAUUAGCAAUAUUACGUCGA = -1.27
• GCUCAGCAAUAUUACGGACU = 0.158
• ACACAGCAAUAUUACGUACU = -0.335
• UGUAAGCAAUAUUACGCAAA = -2.11
• GGUAAGCAAUAUUACGCUUG = -3.34

Report self-splicing fitness (ln) for each item below.
1. ACGAAGCAAUAUUACGUACC
2. UGUAAGCAAUAUUACGCGGU
3. AAGAAGCAAUAUUACGUAGU

Output:
-1.3
-3.22
-2.52

====

Experiment: self-splicing fitness, log relative to wild type (ln ratio); higher = more splicing; Tetrahymena group I intron in knt gene, E. coli kanamycin selection, DiMSum; sequences stand for … in CUCUCU…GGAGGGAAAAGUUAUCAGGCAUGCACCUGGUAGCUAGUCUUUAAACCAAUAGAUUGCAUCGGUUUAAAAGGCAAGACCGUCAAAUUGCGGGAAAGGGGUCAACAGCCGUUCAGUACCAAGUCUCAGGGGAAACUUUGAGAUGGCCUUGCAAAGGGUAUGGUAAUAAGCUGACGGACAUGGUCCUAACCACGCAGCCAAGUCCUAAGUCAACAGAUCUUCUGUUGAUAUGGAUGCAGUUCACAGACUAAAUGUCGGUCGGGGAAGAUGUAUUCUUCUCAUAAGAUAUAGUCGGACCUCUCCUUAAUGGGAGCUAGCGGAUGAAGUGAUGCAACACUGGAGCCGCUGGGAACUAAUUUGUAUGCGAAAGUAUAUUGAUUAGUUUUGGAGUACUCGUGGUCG
Conditions: 30 °C
I would appreciate it if you labelled entries true when self-splicing fitness (ln) is -2 or higher, otherwise false.

Check out these entries, answers already filled in.
• CGGUAGCAAUAUUACGCCUG = true
• ACGAAGCAAUAUUACGCAGC = false
• AGACAGCAAUAUUACGUAUC = false
• GGUUAGCAAUAUUACGCAGU = true
• UAGUAGCAAUAUUACGUAGA = false
• UCUAAGCAAUAUUACGGCUU = false

Task: Item CUGAAGCAAUAUUACGAAAC with self-splicing fitness (ln) of -2 or above?
Output: false

Task: Item ACAAAGCAAUAUUACGAUGA with self-splicing fitness (ln) of -2 or above?
Output: true

Task: Item ACGCAGCAAUAUUACGGAUU with self-splicing fitness (ln) of -2 or above?
Output: false

====

I'd be grateful if you could share measured self-splicing fitness (ln) for these entries.
Experiment: self-splicing fitness, log relative to wild type (ln ratio); higher = more splicing; Tetrahymena group I intron in knt gene, E. coli kanamycin selection, DiMSum; sequences stand for … in CUCUCU…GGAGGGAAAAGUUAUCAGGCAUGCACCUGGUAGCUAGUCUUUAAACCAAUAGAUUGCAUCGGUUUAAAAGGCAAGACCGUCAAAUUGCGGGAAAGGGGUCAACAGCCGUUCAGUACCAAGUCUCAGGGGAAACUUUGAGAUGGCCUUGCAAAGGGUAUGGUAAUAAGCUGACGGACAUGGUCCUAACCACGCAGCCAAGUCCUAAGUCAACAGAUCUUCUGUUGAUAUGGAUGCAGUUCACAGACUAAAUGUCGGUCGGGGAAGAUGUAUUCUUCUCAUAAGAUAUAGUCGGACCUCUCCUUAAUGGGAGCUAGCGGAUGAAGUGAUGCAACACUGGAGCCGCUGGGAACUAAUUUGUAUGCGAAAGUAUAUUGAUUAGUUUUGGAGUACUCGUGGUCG
Conditions: 37 °C
Numbers only.

See these solved cases before continuing.
- GUCCAGCAAUAUUACGUGCA: -0.54
- CGGUAGCAAUAUUACGGUUU: -1.83
- CCGAAGCAAUAUUACGUACC: -2.5
- UACUAGCAAUAUUACGGUGA: -0.0276
- CGGAAGCAAUAUUACGUCCU: 0.626

Report self-splicing fitness (ln) for each item below.
1. GUUUAGCAAUAUUACGGUAU
2. CAGCAGCAAUAUUACGCAGC

Output:
1. 0.286
2. -2.3

Report self-splicing fitness (ln) for each item below.
1. CUGGAGCAAUAUUACGACUG
2. CGGCAGCAAUAUUACGCACA
3. UCAUAGCAAUAUUACGGCAC
4. UCAUAGCAAUAUUACGUCGA

Output:
[0.00578, -0.122, -2.15, -0.745]

Report self-splicing fitness (ln) for each item below.
1. CCGUAGCAAUAUUACGCACG
2. UGCUAGCAAUAUUACGAACG

Output:
1: -1.53; 2: 0.803

Report self-splicing fitness (ln) for each item below.
1. GCCGAGCAAUAUUACGCGAC
2. CUCAAGCAAUAUUACGCGCA
3. ACAGAGCAAUAUUACGCACU

Output:
1. -2.26
2. -2.21
3. -1.33

====

Assay: self-splicing fitness, log relative to wild type (ln ratio); higher = more splicing; Tetrahymena group I intron in knt gene, E. coli kanamycin selection, DiMSum; sequences stand for … in CUCUCU…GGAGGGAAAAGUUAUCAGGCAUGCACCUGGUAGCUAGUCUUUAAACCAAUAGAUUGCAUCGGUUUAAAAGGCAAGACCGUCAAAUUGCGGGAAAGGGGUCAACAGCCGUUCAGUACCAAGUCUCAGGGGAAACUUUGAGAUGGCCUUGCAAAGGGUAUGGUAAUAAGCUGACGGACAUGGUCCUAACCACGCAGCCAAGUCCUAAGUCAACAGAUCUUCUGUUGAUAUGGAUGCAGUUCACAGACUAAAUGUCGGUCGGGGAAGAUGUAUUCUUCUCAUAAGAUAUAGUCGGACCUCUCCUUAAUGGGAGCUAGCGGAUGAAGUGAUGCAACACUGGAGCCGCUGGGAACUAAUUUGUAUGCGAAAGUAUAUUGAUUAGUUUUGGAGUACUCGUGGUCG
Settings: 30 °C
I would appreciate it if you labelled entries Yes when self-splicing fitness (ln) is -2 or higher, otherwise No.

• AGUCAGCAAUAUUACGCGGG = No
• AAUGAGCAAUAUUACGGAGG = No
• UAUCAGCAAUAUUACGCAUA = Yes

Task: Item ACACAGCAAUAUUACGAGGA with self-splicing fitness (ln) of -2 or above?
Output: No

Task: Item UUAAAGCAAUAUUACGAGUU with self-splicing fitness (ln) of -2 or above?
Output: No

Task: Item UGUCAGCAAUAUUACGACAA with self-splicing fitness (ln) of -2 or above?
Output: Yes

Task: Item GAAUAGCAAUAUUACGUCUU with self-splicing fitness (ln) of -2 or above?
Output: Yes

Task: Item AAGCAGCAAUAUUACGCUGA with self-splicing fitness (ln) of -2 or above?
Output: No

====

Assay: self-splicing fitness, log relative to wild type (ln ratio); higher = more splicing; Tetrahymena group I intron in knt gene, E. coli kanamycin selection, DiMSum; sequences stand for … in CUCUCU…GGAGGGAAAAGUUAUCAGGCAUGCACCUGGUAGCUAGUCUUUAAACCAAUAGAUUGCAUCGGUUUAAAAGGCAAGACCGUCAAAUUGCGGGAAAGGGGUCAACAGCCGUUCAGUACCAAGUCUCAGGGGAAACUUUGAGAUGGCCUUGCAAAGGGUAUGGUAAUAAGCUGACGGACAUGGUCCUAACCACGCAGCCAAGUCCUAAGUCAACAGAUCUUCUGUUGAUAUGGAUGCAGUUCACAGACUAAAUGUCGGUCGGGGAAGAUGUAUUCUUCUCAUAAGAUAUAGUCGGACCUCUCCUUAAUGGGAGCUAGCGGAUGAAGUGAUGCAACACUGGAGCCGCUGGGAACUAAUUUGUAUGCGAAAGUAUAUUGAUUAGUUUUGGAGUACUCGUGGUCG
Conditions: 30 °C
I would appreciate it if you labelled entries T when self-splicing fitness (ln) is -2 or higher, otherwise F.

• GGGCAGCAAUAUUACGACUU = T

Task: Item GCUUAGCAAUAUUACGGACG with self-splicing fitness (ln) of -2 or above?
Output: T

Task: Item AAAAAGCAAUAUUACGUGCG with self-splicing fitness (ln) of -2 or above?
Output: T

Task: Item CCUUAGCAAUAUUACGAAGU with self-splicing fitness (ln) of -2 or above?
Output: F

Task: Item UAAAAGCAAUAUUACGAUGA with self-splicing fitness (ln) of -2 or above?
Output: T

Task: Item CUAUAGCAAUAUUACGCGUG with self-splicing fitness (ln) of -2 or above?
Output: T
